- measured_target: Prdx I (recombinant human peroxiredoxin I) (Homo sapiens, UniProt Q06830)
- Construct: full-length, N-terminal His6 tag (pET28a), expressed in E. coli BL21, purified
- Sequence (Q06830 2-199): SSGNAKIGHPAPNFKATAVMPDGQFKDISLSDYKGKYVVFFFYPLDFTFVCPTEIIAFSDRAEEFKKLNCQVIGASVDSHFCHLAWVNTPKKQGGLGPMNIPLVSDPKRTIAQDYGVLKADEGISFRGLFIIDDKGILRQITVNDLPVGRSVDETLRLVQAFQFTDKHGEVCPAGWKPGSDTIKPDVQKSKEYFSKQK
- experimental_details: surface plasmon resonance (Biacore T200), single-cycle kinetics
- conditions_used: read-out: dissociation constant
quantity_name: Kd
A complete answer gives the number and then names the unit.

Input line: What Kd value was documented for this compound, CCc1ccc(S(=O)(=O)N=C2C=CC(=O)c3ccccc32)cc1 ?
Output line: 1570 nM

====

- measured_target: Prdx I (recombinant human peroxiredoxin I) (Homo sapiens, UniProt Q06830)
- Construct: full-length, N-terminal His6 tag (pET28a), expressed in E. coli BL21, purified
- experimental_details: peroxidase activity, Trx-Trx reductase-NADPH-coupled spectrophotometric assay
quantity_name: IC50
A complete answer gives the number and then names the unit.

Input line: What IC50 value was documented for this molecule, CCc1ccc(S(=O)(=O)N=C2C=CC(=O)c3ccccc32)cc1 ?
Output line: 7.85 µM
